B1: Cyclin-F, residues 28 to 80; numbered along this chain, P41002 (parent)
chain: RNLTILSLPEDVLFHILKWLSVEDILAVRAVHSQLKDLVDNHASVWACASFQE

- Variants of: B1
- assay_summary: abundance fitness (aPCA) (normalised: wild type 0, dead -1); higher = more abundant; growth selection in yeast, the domain comes from the species named
- study_conditions: Homo sapiens
measure: abundance fitness
// print number alone

abundance fitness recorded for this variant, D40Y , is -0.862

abundance fitness recorded for this variant, L17F , is 0.056

abundance fitness recorded for this variant, T4Q , is -0.481

abundance fitness recorded for this variant, I16Y , is -0.641

abundance fitness recorded for this variant, V31F , is -0.747

Numbers sourced from the Human Domainome abundance scans (Beltran et al. 2025).
